Target: UniProt Q9Y4D2
Assay: Inhibition of HT-01 probe binding to recombinant human DAGLalpha expressed in HEK293T cell membrane proteomes preincubated for 30 mins followed by HT-01 probe addition measured after 30 mins by gel-based competitive activity based protein profiling assay
Assay type: cell membranes, HEK-293T
MEASURED_METRIC: pIC50
One number for each entry, as −log10 of the molar value.

Enquiry: Which pIC50 value belongs to O=C(N1CCCCC1Cc1ccccc1)n1cc(-c2ccc(-c3ccccc3)cc2)nn1 (racemic) ?
Return: 5.64

###

Biological target: UniProtKB Q9Y4D2
Sequence (Q9Y4D2 whole entry): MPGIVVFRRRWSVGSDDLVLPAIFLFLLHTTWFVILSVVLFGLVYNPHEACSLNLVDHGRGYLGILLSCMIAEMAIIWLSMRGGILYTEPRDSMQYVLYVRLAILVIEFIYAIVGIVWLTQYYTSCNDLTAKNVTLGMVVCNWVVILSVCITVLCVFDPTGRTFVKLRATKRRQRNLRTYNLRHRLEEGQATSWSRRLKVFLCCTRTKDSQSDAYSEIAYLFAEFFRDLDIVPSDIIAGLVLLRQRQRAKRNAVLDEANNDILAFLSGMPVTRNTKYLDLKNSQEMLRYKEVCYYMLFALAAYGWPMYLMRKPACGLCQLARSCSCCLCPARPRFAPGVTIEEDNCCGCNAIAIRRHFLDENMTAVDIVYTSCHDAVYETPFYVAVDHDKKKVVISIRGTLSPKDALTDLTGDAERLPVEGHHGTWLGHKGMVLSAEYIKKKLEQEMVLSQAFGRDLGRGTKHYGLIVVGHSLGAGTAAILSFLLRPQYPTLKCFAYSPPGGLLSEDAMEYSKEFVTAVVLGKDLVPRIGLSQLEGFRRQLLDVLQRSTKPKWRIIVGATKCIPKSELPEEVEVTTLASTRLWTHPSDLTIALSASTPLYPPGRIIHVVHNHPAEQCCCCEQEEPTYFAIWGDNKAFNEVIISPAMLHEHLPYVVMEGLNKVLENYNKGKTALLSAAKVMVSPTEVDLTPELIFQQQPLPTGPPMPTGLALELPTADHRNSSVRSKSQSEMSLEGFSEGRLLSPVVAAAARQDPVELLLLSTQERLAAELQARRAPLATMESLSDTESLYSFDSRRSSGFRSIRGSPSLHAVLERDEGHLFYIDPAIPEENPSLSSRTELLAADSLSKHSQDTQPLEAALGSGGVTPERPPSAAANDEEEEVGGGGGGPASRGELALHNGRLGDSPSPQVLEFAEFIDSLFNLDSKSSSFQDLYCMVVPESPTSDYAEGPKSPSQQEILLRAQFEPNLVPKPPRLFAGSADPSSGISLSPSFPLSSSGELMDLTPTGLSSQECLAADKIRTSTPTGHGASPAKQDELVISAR
Assay: Inhibition of recombinant human DAGLalpha expressed in HEK293T cell membranes overexpressing MAGL using natural substrate 1-stearoyl-2-arachidonoly-sn-glycerol by fluorescence based assay
Set-up: species or system HEK-293T
Answer each item with its documented pIC50.
Numbers only, as −log10 of the molar value.

Example cases with answers are listed next.
O=C(N1CCCC[C@@H]1Cc1ccccc1)n1cc(-c2ccc(-c3ccccc3)cc2)nn1 :: 7.60
O=C(N1CCCCC1Cc1ccccc1)n1cc(-c2ccc(-c3ccccc3)cc2)nn1 (racemic) :: 6.90

Now look at this entry.
Enquiry: Returns the measured pIC50 for the input compound. Input: "O=C(N1CCCC[C@H]1Cc1ccccc1)n1cc(-c2ccc(-c3ccccc3)cc2)nn1"
Return: 6.10

###

Target: Diacylglycerol lipase-beta (Mus musculus)
Sequence (Q91WC9 whole entry): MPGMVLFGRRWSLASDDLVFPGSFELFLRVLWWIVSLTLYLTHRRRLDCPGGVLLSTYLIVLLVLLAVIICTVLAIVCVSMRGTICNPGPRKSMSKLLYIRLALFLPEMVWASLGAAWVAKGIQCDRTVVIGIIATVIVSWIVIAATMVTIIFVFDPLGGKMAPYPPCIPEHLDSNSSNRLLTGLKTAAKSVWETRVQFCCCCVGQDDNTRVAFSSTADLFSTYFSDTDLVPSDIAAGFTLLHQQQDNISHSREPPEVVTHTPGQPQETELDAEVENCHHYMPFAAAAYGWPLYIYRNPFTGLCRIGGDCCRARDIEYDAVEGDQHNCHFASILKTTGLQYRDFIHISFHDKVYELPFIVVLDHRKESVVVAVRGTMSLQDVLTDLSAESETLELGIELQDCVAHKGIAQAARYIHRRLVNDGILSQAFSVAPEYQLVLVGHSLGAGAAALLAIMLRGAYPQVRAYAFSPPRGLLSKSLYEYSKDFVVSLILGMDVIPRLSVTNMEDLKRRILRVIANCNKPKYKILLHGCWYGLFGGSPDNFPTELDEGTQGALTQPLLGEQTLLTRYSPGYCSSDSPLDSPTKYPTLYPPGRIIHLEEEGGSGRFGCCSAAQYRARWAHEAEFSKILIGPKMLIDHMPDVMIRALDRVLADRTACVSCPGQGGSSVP
Test: Inhibition of recombinant mouse DAGLbeta expressed in HEK293T cell membranes using PNP butyrate as substrate by colorimetric assay
MEASURED_METRIC: IC50 (µM)
Give bare numbers, in µM.

O=C(N1CCCCC1Cc1ccccc1)n1ncc(C(O)(c2ccccc2)c2ccccc2)n1 (centres undefined) :: 0.0126
CCC1CCCCN1C(=O)n1cc(-c2ccc(-c3ccccc3)cc2)nn1 (centres undefined) :: 20

Below is a list of compounds. For each, state its recorded IC50.
1. O=C(N1CCCCC1Cc1ccccc1)n1cc(C(O)(c2ccccc2)c2ccccc2)nn1 (centres undefined)
2. CCC1CCCCN1C(=O)n1ncc(C(O)(c2ccccc2)c2ccccc2)n1 (centres undefined)

Return:
[0.0794, 12.6]

###

Molecular target: UniProtKB Q6WQJ1
Sequence (Q6WQJ1 whole entry): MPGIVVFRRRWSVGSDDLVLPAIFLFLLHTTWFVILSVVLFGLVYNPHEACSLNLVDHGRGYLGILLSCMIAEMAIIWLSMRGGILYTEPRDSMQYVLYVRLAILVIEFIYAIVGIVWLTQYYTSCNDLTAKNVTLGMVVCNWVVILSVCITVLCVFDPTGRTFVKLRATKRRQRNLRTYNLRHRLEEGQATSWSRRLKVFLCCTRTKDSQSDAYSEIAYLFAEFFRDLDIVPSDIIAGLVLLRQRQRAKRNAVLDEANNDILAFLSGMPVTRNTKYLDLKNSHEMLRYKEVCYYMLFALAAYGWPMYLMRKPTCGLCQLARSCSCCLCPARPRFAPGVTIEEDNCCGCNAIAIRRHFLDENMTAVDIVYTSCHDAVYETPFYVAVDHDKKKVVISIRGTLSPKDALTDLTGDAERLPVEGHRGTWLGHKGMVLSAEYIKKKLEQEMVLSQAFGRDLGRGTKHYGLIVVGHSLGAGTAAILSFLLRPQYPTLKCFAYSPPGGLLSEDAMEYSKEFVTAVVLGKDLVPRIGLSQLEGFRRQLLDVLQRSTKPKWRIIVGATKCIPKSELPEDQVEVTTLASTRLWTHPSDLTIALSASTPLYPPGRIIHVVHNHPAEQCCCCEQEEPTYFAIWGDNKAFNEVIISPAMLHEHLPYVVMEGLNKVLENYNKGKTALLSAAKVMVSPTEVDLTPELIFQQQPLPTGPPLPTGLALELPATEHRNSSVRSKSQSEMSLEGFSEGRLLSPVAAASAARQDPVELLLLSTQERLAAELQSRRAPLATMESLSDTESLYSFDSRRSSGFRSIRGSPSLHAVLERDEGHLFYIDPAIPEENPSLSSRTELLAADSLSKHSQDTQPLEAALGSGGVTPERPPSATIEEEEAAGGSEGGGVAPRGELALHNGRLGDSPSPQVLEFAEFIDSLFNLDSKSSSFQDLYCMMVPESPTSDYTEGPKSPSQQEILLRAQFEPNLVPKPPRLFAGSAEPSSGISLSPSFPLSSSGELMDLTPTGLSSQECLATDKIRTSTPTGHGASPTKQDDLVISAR
Assay: Inhibition of MB064 probe binding to DAGLalpha in mouse brain membrane proteome preincubated for 30 mins followed by MB064 probe addition measured after 20 mins by gel-based competitive activity based protein profiling assay
For each entry below, report its IC50 value.

Study these solved cases before continuing.
O=C(N1CCCC[C@@H]1Cc1ccccc1)n1cc(-c2ccc(-c3ccccc3)cc2)nn1 :: 7.94 nM
C#CCO[C@@H]1CC[C@H](Cc2ccccc2)N(C(=O)n2ncc(C(O)(c3ccc(F)cc3)c3ccc(F)cc3)n2)C1 :: 0.631 nM
CO[C@@H]1CC[C@H](Cc2ccccc2)N(C(=O)n2ncc(C(O)(c3ccc(F)cc3)c3ccc(F)cc3)n2)C1 :: 2 nM

# map each compound to its IC50
1. O=C(N1CCCC[C@H]1Cc1ccccc1)n1cc(-c2ccc(-c3ccccc3)cc2)nn1
2. O=C(N1C[C@H](OCC2CC2)CC[C@@H]1Cc1ccccc1)n1ncc(C(O)(c2ccc(F)cc2)c2ccc(F)cc2)n1
3. CO[C@H]1CC[C@H](Cc2ccccc2)N(C(=O)n2ncc(C(O)(c3ccc(F)cc3)c3ccc(F)cc3)n2)C1
4. O=C(N1C[C@@H](OCC2CC2)CC[C@@H]1Cc1ccccc1)n1ncc(C(O)(c2ccc(F)cc2)c2ccc(F)cc2)n1

Return:
1. 631 nM
2. 2 nM
3. 79.4 nM
4. 79.4 nM
